Read-out: Cellular tumor antigen p53 (Homo sapiens) (UniProt P04637)
Sequence (P04637 whole entry, looked up): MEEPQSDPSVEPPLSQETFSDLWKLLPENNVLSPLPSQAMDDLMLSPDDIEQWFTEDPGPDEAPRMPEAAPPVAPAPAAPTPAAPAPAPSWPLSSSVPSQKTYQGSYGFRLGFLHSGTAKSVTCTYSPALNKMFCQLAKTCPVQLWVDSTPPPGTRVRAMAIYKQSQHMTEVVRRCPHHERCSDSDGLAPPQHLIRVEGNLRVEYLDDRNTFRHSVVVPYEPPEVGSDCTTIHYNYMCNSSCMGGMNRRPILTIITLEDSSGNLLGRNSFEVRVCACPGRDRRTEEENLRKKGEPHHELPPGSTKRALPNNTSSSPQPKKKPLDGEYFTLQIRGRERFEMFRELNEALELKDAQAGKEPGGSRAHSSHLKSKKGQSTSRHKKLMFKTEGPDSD
method.summary: LTEA_HepaRG_TP53: Life Technologies and Expression Analysis (LTEA) Assay for Tumor Protein P53 (TP53) using HepaRG (AID 2283537)
condition: mRNA level, 48 h; actives raise or lower the signal
Active and inactive are the calls of the source. Rule for the calls: active = hit-call score of the fitted dose curve at least 0.9, where 1 is the maximum; inactive = score below 0.9.
Possible outcomes: active, inactive

| compound | class.label |
| --- | --- |
| COP(N)(=O)SC (stereo not drawn) | inactive |
| CCON=C(CC)C1=C(O)CC(c2c(C)cc(C)cc2C)CC1=O (stereo not drawn) | inactive |
| CNC(=S)S | inactive |
| CON(C)C(=O)Nc1ccc(Cl)c(Cl)c1 | active |
| CCCCOC(=O)c1ccccc1C(=O)OCCCC | inactive |
| CCNc1nc(Cl)nc(NCC)n1 | inactive |
| CCc1nn(C)c(C(=O)NCc2ccc(C(C)(C)C)cc2)c1Cl | active |
| Cc1ccc(-c2c(Cl)nc(C#N)n2S(=O)(=O)N(C)C)cc1 | inactive |
| N#Cc1cc(Br)c(O)c(Br)c1 | active |
| COC(=O)C=C(C)OP(=O)(OC)OC | inactive |
| CCCCNC(=O)n1c(NC(=O)OC)nc2ccccc21 | inactive |
| CC(C)Oc1cc(-n2nc(C(C)(C)C)oc2=O)c(Cl)cc1Cl | active |
| C=CCC1=C(C)[C@@H](OC(=O)[C@@H]2[C@@H](C=C(C)C)C2(C)C)CC1=O | inactive |
| CNC(=O)ON=CC(C)(C)SC | inactive |
| Cc1c(F)c(F)c(COC(=O)C2C(/C=C(\Cl)C(F)(F)F)C2(C)C)c(F)c1F (stereo not drawn) | inactive |
| CCOC(=O)C(Cl)Cc1cc(-n2nc(C)n(C(F)F)c2=O)c(F)cc1Cl (stereo not drawn) | inactive |
| CCCC1COC(Cn2cncn2)(c2ccc(Cl)cc2Cl)O1 (stereo not drawn) | active |
| CCCCC(CC)COC(=O)c1ccccc1C(=O)OCC(CC)CCCC (stereo not drawn) | inactive |
| CCOC(=O)CC(SP(=S)(OC)OC)C(=O)OCC (stereo not drawn) | inactive |
| COC(=O)c1ccccc1C(=O)OC | inactive |
| COC(=O)N(OC)c1ccccc1COc1ccn(-c2ccc(Cl)cc2)n1 | active |
| Oc1ccccc1-c1ccccc1 | inactive |
| COC(=O)C(C)Oc1ccc(Oc2ccc(Cl)cc2Cl)cc1 (stereo not drawn) | inactive |
| CCNc1nc(Cl)nc(NC(C)C)n1 | inactive |
| N#CC(CCc1ccc(Cl)cc1)(Cn1cncn1)c1ccccc1 (stereo not drawn) | active |
| Cc1cc(Cl)ccc1OCC(=O)O | inactive |
| C=CC1(C)OC(=O)N(c2cc(Cl)cc(Cl)c2)C1=O (stereo not drawn) | inactive |
| COc1cnc(OC)n2nc(NS(=O)(=O)c3c(OCC(F)F)cccc3C(F)(F)F)nc12 | inactive |

* * *

target.under.test: human Thyroid hormone Receptor alpha (TRa), THRA (gene 7067)
method.summary: ATG_hTRa_XSP2: Attagene TRANS-FACTORIAL Multi-Species (XSP2) HepG2 Assay for human Thyroid hormone Receptor alpha (TRa) (AID 2283838)
Records with an inconclusive call do not appear. Activity calls are given as the source filed them. How the source made its calls: active means hit-call score of the fitted dose curve at least 0.9, where 1 is the maximum; inconclusive means response in the unintended direction; inactive means score below 0.9.
Labels: active, inactive

| compound | class.label |
| --- | --- |
| CCCCNC(=O)OCC#CI | inactive |
| C=CC1(C)OC(=O)N(c2cc(Cl)cc(Cl)c2)C1=O (configuration not stated) | active |
| COP(=S)(OC)Oc1nc(Cl)c(Cl)cc1Cl | inactive |
| CC(C)Oc1cc(-n2nc(C(C)(C)C)oc2=O)c(Cl)cc1Cl | inactive |
| CCOP(=S)(OCC)SCn1c(=O)oc2cc(Cl)ccc21 | inactive |
| CCCCOC(=O)c1ccccc1C(=O)OCCCC | inactive |
| CCCCC(CC)COC(=O)c1ccccc1C(=O)OCC(CC)CCCC (configuration not stated) | inactive |
